Experiment: small-molecule microarray binders of probe aXIP, primary screen, biochemical, NeuroSMM set, 635/667 nm fluorescence (AID 1119);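 further: probe is the protein aXip251-270 applied at 1 µg/mL to compound-printed slides; binding of probe to printed compounds measured as 667 nm fluorescence plus signal to noise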
Conditions: higher = more signal, called active from +8 up or from −8 down
Let's look at some compounds and their measured composite Z-score.

compound: NC(=O)NCC#Cc1ccc2c(c1)[C@]1(C(=O)N2)[C@H](c2ccccc2OCCO)N2[C@H](c3ccccc3)[C@H](c3ccccc3)OC(=O)[C@H]2[C@@H]1C(=O)N1CCN(c2ncccn2)CC1
composite Z-score: 0.39

compound: COc1cc([C@@H]2N[C@H](C(=O)O)Cc3c2[nH]c2ccccc32)cc(OC)c1OC
composite Z-score: -0.651

compound: Cc1ccc(S[C@]2(C(=O)O)CC(=O)N(Cc3ccccc3)[C@@H]2c2ccc(CO)cc2)cc1
composite Z-score: 1.28

compound: C=CC[C@@]1(C(=O)NCC(O)CO)N=C(c2ccc(OCCCO)cc2)O[C@@H]1c1ccccc1CN=[N+]=[N-] (some centres not stated)
composite Z-score: 0.536

compound: COC(=O)C1=CC(c2ccc(CO)cc2)=CC(c2cccs2)N(Cc2cccc(OC(F)(F)F)c2)C=C1C(=O)OC (configuration not stated)
composite Z-score: 0.639

compound: COC(=O)[C@@]1(Cc2ccccc2CN=[N+]=[N-])N=C(c2ccc(OCCCO)cc2)O[C@H]1c1ccccc1N=[N+]=[N-]
composite Z-score: -0.22

compound: COCCOC(=O)N1C(=O)[C@@]2(c3cc(C#CC4=CCCCC4)ccc31)[C@H](c1ccc(O)cc1)N1[C@H](c3ccccc3)[C@H](c3ccccc3)OC(=O)[C@H]1[C@@H]2C(=O)N1CCCCCCC1
composite Z-score: 1.69

* * *

Experiment: cell viability in Huh7 cells, primary screen, cytotoxicity control for HCV replication inhibitor project, CellTiter-Glo luminescence, basal, 48 h (AID 1143);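 further: Huh7 hepatoma cells carrying a hepatitis C replication reporter with no stimulus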
Conditions: Huh7 HCV replicon, higher = more signal, called active from +8 up or from −8 down

compound: COCCOC(=O)N1C(=O)[C@@]2(c3cc(C#CC4=CCCCC4)ccc31)[C@H](C(=O)NC[C@H](O)c1ccccc1)[C@H]1C(=O)O[C@H](c3ccccc3)[C@H](c3ccccc3)N1[C@@H]2c1ccc(OCCO)cc1
z-score: -2.96

compound: CC(C)[Si]1(C(C)C)OCc2cc(C3CC3)nc(-c3ccccc3)c21
z-score: -1.63

compound: CO[C@H]1COC(=O)[C@@H](C)COC(=O)[C@H](Cc2ccccc2)NC(=O)CC=C[C@H]1C
z-score: -0.317

compound: COc1cccc([C@H]2N[C@H](C(=O)O)CC[C@@H]2C)c1
z-score: -3.79

compound: CC1CC/C=C\[C@H]2OC34C=CCN(Cn5nnc6ccccc65)C(=O)[C@H]3N(C(C)CO)C(=O)[C@@H]4C2C(=O)O1 (some centres undefined)
z-score: 0.349

compound: C[C@]1(C(=O)NCCN2CCOCC2)c2ccccc2C(=O)N(Cc2ccccc2)[C@H]1c1ccc(CO)cc1
z-score: -1.82

compound: C#C[C@H](O[Si](C#Cc1ccccc1)(C(C)C)C(C)C)c1ccccc1
z-score: -1.33

compound: CO[C@@H]1COC(=O)[C@@H]2CCCN2C(=O)CC=C[C@@H](C)[C@H](OC)COC(=O)[C@@H]2CCCN2C(=O)CC=C[C@H]1C
z-score: -0.381

compound: C=CCN1C(=O)[C@@]2(O[C@@H](CCn3cc([C@H](O)c4ccccc4)nn3)[C@H]([Si](C)(C)c3ccc(OC)cc3)[C@H]2C)c2cc(N3CCOC3=O)ccc21
z-score: -6.15

compound: COCCOC(=O)N1C(=O)[C@@]2(c3cc(C#CC4=CCCCC4)ccc31)[C@H](C(=O)NC[C@H](O)c1ccccc1)[C@H]1C(=O)O[C@H](c3ccccc3)[C@H](c3ccccc3)N1[C@@H]2c1ccccc1OCCO
z-score: -5.75

compound: C=C[C@H](OC)[C@@H](OC(=O)Nc1ccc(SC)cc1)c1ccc(O)c(F)c1
z-score: -0.731

compound: Cc1ccc(S[C@]2(C(=O)O)CC(=O)N(Cc3cc(C(F)(F)F)cc(C(F)(F)F)c3)[C@@H]2c2ccc(CO)cc2I)cc1
z-score: -2.71

compound: COC(=O)[C@@]1(Cc2ccc(OC)cc2)[C@H]2c3cc(C(=O)N(C)C)n(CCc4ccc(OC)c(Br)c4)c3C[C@H]2CN1C(=O)c1ccccc1
z-score: -3.88

compound: C=CCNC(=O)[C@H]1[C@@H]2C(=O)O[C@@H](c3ccccc3)[C@@H](c3ccccc3)N2[C@@H](c2ccccc2OCCO)[C@]12C(=O)N(C(=O)OCCOC)c1ccc(C#CCC(C(=O)OC)C(=O)OC)cc12
z-score: -3.84

* * *

Tested on: XIP peptide (Xip251-270)
Test: small-molecule binders of XIP peptide, primary screen, biochemical, small-molecule microarray, fluorescence 635/667 nm, 0.5 µg/mL protein (AID 1183)
Settings: small-molecule microarray binding, fluorescence 635 nm; higher = more signal
Mark 0.0 for composite z-score values under -0.6, and 1.0 for everything at or above.

compoundStructureString: C[C@@H]1CC[C@H]2C(=O)N3[C@@H](CC[C@@H](C)[C@@H]3c3cccc(N4CCOCC4)c3)C(=O)N2[C@H]1c1cccc(N2CCOCC2)c1
assignedCategory: 1.0

compoundStructureString: C=CC[C@]1(C(=O)N2CCCCC2)N=C(c2ccc(OCCCO)cc2)O[C@H]1c1ccccc1N=[N+]=[N-]
assignedCategory: 1.0

compoundStructureString: CCC(=O)[C@]12O[C@@]3([C@@H]4C(=O)OCC[C@@H]41)N(Cc1ccccc1)C(C)=C(C(=O)OC)[C@@H](c1ccccc1)N3C2=O
assignedCategory: 1.0

compoundStructureString: COc1cc2c(cc1OC)CN(C(=O)[C@H]1[C@@H]3C(=O)O[C@@H](c4ccccc4)[C@@H](c4ccccc4)N3[C@@H](c3ccccc3OCCO)[C@]13C(=O)Nc1ccc(C#CC4(O)CCCCCC4)cc13)CC2
assignedCategory: 1.0

compoundStructureString: CC(=O)NCCCC[C@@H]1NC(=O)[C@@H]2C[C@H](C(=O)NCc3ccc(F)cc3)[C@H](c3cccc(OCCO)c3)N2C1=O
assignedCategory: 1.0

compoundStructureString: Cc1ccc(N2C(=O)c3ccccc3[C@](C)(C(=O)NCC(C)C)[C@@H]2c2ccc(CO)cc2)nc1
assignedCategory: 0.0

* * *

Biological target: Pro-neuregulin-1, membrane-bound isoform (Homo sapiens)
Test: NRG1 binders on small-molecule microarrays, primary screen, psychiatric disease protein project, biochemical, small-molecule microarray, fluorescence 635/667 (AID 1075);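 further: score combines 667 nm spot fluorescence with signal to noise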
Settings: NRG1 binding, 635 nm fluorescence, higher = more signal
Let's look at some compounds and their measured composite z-score.

compound: CC(C)(C)OC(=O)CC[C@]1(C(=O)N2CCCCC2)N=C(c2ccc(OCCCO)cc2)O[C@H]1c1ccccc1
measurementTarget: Pro-neuregulin-1, membrane-bound isoform (Homo sapiens)
composite z-score: 1.53

compound: CO[C@H]1COC(=O)CC=C[C@H](C)COC(=O)[C@@H](OCc2ccccc2)C=C[C@@H]1C
measurementTarget: Pro-neuregulin-1, membrane-bound isoform (Homo sapiens)
composite z-score: 0.311

compound: C=C(COC)/C(=C/C[C@@H](OC(=O)c1ccncc1)c1ccc(OCCO)cc1)c1cc(C(=O)OC)ccc1OC
measurementTarget: Pro-neuregulin-1, membrane-bound isoform (Homo sapiens)
composite z-score: 1.44

compound: C[C@H]1C2[C@H](Cc3ccccc3)NC(=O)[C@]23C(=O)N[C@H](Cc2ccccc2)C(=O)N[C@@H](Cc2ccccc2)C(=O)NC/C=C\C/C=C/C3[C@@H]2O[C@]12C (some centres undefined)
measurementTarget: Pro-neuregulin-1, membrane-bound isoform (Homo sapiens)
composite z-score: -0.384

compound: COCCOC(=O)N1C(=O)[C@@]2(c3cc(C#CC4=CCCCC4)ccc31)[C@H](C(=O)NC[C@H](O)c1ccccc1)[C@H]1C(=O)O[C@H](c3ccccc3)[C@H](c3ccccc3)N1[C@@H]2c1ccccc1OCCO
measurementTarget: Pro-neuregulin-1, membrane-bound isoform (Homo sapiens)
composite z-score: 0.616

compound: CO[C@]12C=C(Br)[C@@H](C[C@@H]1c1ccccc1)[C@@]1(CO1)C2=O
measurementTarget: Pro-neuregulin-1, membrane-bound isoform (Homo sapiens)
composite z-score: -0.115

compound: CCOC(=O)C[C@H]1[C@H](OC(=O)c2ccccc2-c2ccccc2)[C@@H](NC(=O)C2CCCCC2)c2cc(OCCCO)ccc2N1C(=O)c1ccccc1
measurementTarget: Pro-neuregulin-1, membrane-bound isoform (Homo sapiens)
composite z-score: 0.0516

compound: CO[C@H]1COC(=O)CC=C[C@H](C)[C@@H](OC)COC(=O)CC=C[C@@H]1C
measurementTarget: Pro-neuregulin-1, membrane-bound isoform (Homo sapiens)
composite z-score: -0.768

compound: CC(=O)NCCCC[C@@H]1NC(=O)[C@@H]2C[C@H](C(=O)NCc3ccc(F)cc3)[C@H](c3cccc(OCCO)c3)N2C1=O
measurementTarget: Pro-neuregulin-1, membrane-bound isoform (Homo sapiens)
composite z-score: 1.39

compound: CCN1C(C)=C(C(=O)OC)[C@@H](c2ccccc2)N2C(=O)[C@@]3(C(=O)OC)O[C@@]12[C@@H]1C(=O)CCC[C@@H]13
measurementTarget: Pro-neuregulin-1, membrane-bound isoform (Homo sapiens)
composite z-score: -0.307

compound: CC(C)[Si]1(C(C)C)O[C@@H](c2ccccc2)c2cc(C3CC3)nc(-c3ccc(Oc4ccccc4)cc3)c21
measurementTarget: Pro-neuregulin-1, membrane-bound isoform (Homo sapiens)
composite z-score: -0.46

compound: C[C@@H]1CC[C@H]2C(=O)N3[C@@H](CC[C@@H](C)[C@@H]3c3cccc(N4CCOCC4)c3)C(=O)N2[C@H]1c1cccc(Br)c1
measurementTarget: Pro-neuregulin-1, membrane-bound isoform (Homo sapiens)
composite z-score: 0.942

compound: CO[C@H]1COC(=O)[C@H](CCSC)NC(=O)CC=C[C@@H](C)COC(=O)[C@@H](OCc2ccccc2)C=C[C@@H]1C
measurementTarget: Pro-neuregulin-1, membrane-bound isoform (Homo sapiens)
composite z-score: -0.37

compound: CC(C)(C)OC(=O)CC[C@]1(C(=O)NCCN2CCOCC2)N=C(c2ccc(OCCCO)cc2)O[C@H]1c1ccccc1CN=[N+]=[N-]
measurementTarget: Pro-neuregulin-1, membrane-bound isoform (Homo sapiens)
composite z-score: 1.73
